System: Oocyte
MEASUREMENT_DESCRIPTION: Inhibition of human aquaporin 4 M23 isoform expressed in Xenopus laevis oocytes at 20 uM
Assay type: cell-based
MEASUREMENT_TYPE: inhibition

[[record]]
compound = "NC(=O)c1nc[nH]c1C(N)=O"
measurement_type = "inhibition"
result = "23%"

[[record]]
compound = "NC(=O)NCCC[C@H](N)C(=O)O"
measurement_type = "inhibition"
result = "0%"

[[record]]
compound = "CC/C(=C(\\c1ccccc1)c1ccc(OCCN(C)C)cc1)c1ccccc1"
measurement_type = "inhibition"
result = "71%"

[[record]]
compound = "CC(C)NC[C@H](O)COc1cccc2ccccc12"
measurement_type = "inhibition"
result = "26%"

[[record]]
compound = "COc1ccccc1OCC(O)CO (configuration not stated)"
measurement_type = "inhibition"
result = "34%"

[[record]]
compound = "O=C(Nc1nccs1)c1cccnc1"
measurement_type = "inhibition"
result = "30%"

[[record]]
compound = "NS(=O)(=O)c1cc(Cl)sc1Cl"
measurement_type = "inhibition"
result = "11%"


====

System: Oocyte
MEASUREMENT_DESCRIPTION: Inhibition of human aquaporin 4 M23 isoform expressed in Xenopus laevis oocytes at 20 uM
Assay type: cell-based
Here the recorded inhibition is given for each entry.
MEASUREMENT_TYPE: inhibition (%)

[[record]]
molecule = "Oc1cnc(Nc2nc3ccccc3o2)[nH]1"
readout_number = 44

[[record]]
molecule = "NS(=O)(=O)c1ccc(Cl)s1"
readout_number = 18

[[record]]
molecule = "CNS(=O)(=O)Cc1ccc2[nH]cc(CCN(C)C)c2c1"
readout_number = 54

[[record]]
molecule = "O=C(Nc1ccccc1)c1cccnc1"
readout_number = 26

[[record]]
molecule = "N[C@@H]1CONC1=O"
readout_number = 3

[[record]]
molecule = "CN(C)CCc1c[nH]c2ccc(Cn3cncn3)cc12"
readout_number = 52

[[record]]
molecule = "CN1CCc2cccc3c2[C@H]1Cc1ccc(O)c(O)c1-3"
readout_number = 40

[[record]]
molecule = "O=S(=O)(Cc1ccccc1)Nc1nccs1"
readout_number = 45

[[record]]
molecule = "O=C(Nc1nncs1)c1cccnc1"
readout_number = 67

[[record]]
molecule = "OCC(O)COCc1ccccc1 (stereo unspecified)"
readout_number = 11

[[record]]
molecule = "CCCC(C)C1(CC)C(=O)NC(=O)NC1=O (stereo unspecified)"
readout_number = 9


====

Here the recorded pIC50 is given for each entry.
MEASUREMENT_DESCRIPTION: Inhibition of human aquaporin 4 M23 isoform expressed in Xenopus laevis oocytes
Assay type: cell-based
CONDITION_CONTEXT: oocyte
pIC50: −log10 of the molar value.
MEASUREMENT_TYPE: pIC50

[[record]]
structure_as_smiles = "O=C(Nc1nncs1)c1cccnc1"
measurement_type = "pIC50"
readout_number = 5.51

[[record]]
structure_as_smiles = "CN(C)CCc1c[nH]c2ccc(Cn3cncn3)cc12"
measurement_type = "pIC50"
readout_number = 5.54

[[record]]
structure_as_smiles = "CNS(=O)(=O)Cc1ccc2[nH]cc(CCN(C)C)c2c1"
measurement_type = "pIC50"
readout_number = 4.96

